- System: MDA-MB-231
- assay.notes: normalised response (% of control), CellTox Green; higher = less cell death (100 = DMSO, 0 = benzethonium chloride kill control)
- run.parameters: incubation time: 72 h
Measured normalised response values are reported for all entries that follow.
# output: bare number, implied unit %

CC1(C)NC(=O)N(c2ccc([N+](=O)[O-])c(C(F)(F)F)c2)C1=O [Nilutamide] (100 nM) ... 105
N#CCNC(=O)c1ccc(-c2ccnc(Nc3ccc(N4CCOCC4)cc3)n2)cc1 [Momelotinib] (100 nM) ... 53.8
O=C(CCCCCCC(=O)Nc1ccc([C@H]2O[C@@H](CSc3nc(-c4ccccc4)c(-c4ccccc4)o3)C[C@@H](c3ccc(CO)cc3)O2)cc1)NO [Tubacin] (10000 nM) ... -21.5
N.N.[Cl][Pt][Cl] [Cisplatin] (10 nM) ... 114
N[C@@H](CSC(c1ccccc1)(c1ccccc1)c1ccccc1)C(=O)O [S-trityl-L-cysteine] (400 nM) ... 104
C[C@]12CC[C@@H]3c4ccc(O)cc4C[C@@H](CCCCCCCCC[S+]([O-])CCCC(F)(F)C(F)(F)F)[C@H]3[C@@H]1CC[C@@H]2O (stereo partly drawn) [Fulvestrant] (10 nM) ... 115

Looking for the measured normalised response of Cn1c(CCCC(=O)O)nc2cc(N(CCCl)CCCl)ccc21 [Bendamustine] (100 nM) , can you help? 102

Looking for the measured normalised response of Oc1nc(-c2ccc(C(F)(F)F)cc2)nc2c1CSCC2 [XAV-939] (100 nM) , can you help? 100

Looking for the measured normalised response of CCCCCCCCCCCCCCCCCCOP(=O)([O-])OC1CC[N+](C)(C)CC1 [Perifosine] (25 nM) , can you help? 92.4

====

- System: MDA-MB-436
- assay.notes: normalised viability (% of control), CellTiter-Blue; higher = more viable cells (about 100 = DMSO control)
- run.parameters: 1000 nM; incubation time: 72 h
quantity: normalised viability (%)
# output: bare number, implied unit %

Looking for the measured normalised viability of "CN(C)/N=N/c1[nH]cnc1C(N)=O" , can you help? 78.7

Looking for the measured normalised viability of "CC(C)Cn1cnc2c(N)nc3ccccc3c21" , can you help? 92.3

Looking for the measured normalised viability of "CNCc1ccc(-c2[nH]c3cc(F)cc4c3c2CCNC4=O)cc1" , can you help? 62.6

Looking for the measured normalised viability of "Cn1c(CCCC(=O)O)nc2cc(N(CCCl)CCCl)ccc21" , can you help? 70.4

====

- System: SK-BR-3
- assay.notes: normalised response (% of control), CellTiter-Glo; higher = more viable cells (100 = DMSO, 0 = benzethonium chloride kill control)
- run.parameters: incubation time: 72 h
Measured normalised response values are reported for all entries that follow.
Express your answer as a number followed by its unit.

Recorded results for 8 compounds are shown here.
O=P1(NCCCl)OCCCN1CCCl (centres undefined) [Ifosfamide] (1 nM) ... 93.3%
N[C@@H](CSC(c1ccccc1)(c1ccccc1)c1ccccc1)C(=O)O [S-trityl-L-cysteine] (4000 nM) ... 94.3%
O=C(CCCCCCC(=O)Nc1ccc([C@H]2O[C@@H](CSc3nc(-c4ccccc4)c(-c4ccccc4)o3)C[C@@H](c3ccc(CO)cc3)O2)cc1)NO [Tubacin] (10 nM) ... 95.2%
CCC1(c2ccc(N)cc2)CCC(=O)NC1=O (centres undefined) [Aminoglutethimide] (1 nM) ... 103%
CCC1=C[C@@H]2CN(C1)Cc1c([nH]c3ccccc13)[C@@](C(=O)OC)(c1cc3c(cc1OC)N(C)[C@H]1[C@@](O)(C(=O)OC)[C@H](OC(C)=O)[C@]4(CC)C=CCN5CC[C@]31[C@@H]54)C2 [Vinorelbine] (1000 nM) ... 16.9%
COc1cc2ncnc(Nc3ccc(F)c(Cl)c3)c2cc1NC(=O)/C=C/CN1CCCCC1 [Dacomitinib] (100 nM) ... 36.1%
Cn1c(CCCC(=O)O)nc2cc(N(CCCl)CCCl)ccc21 [Bendamustine] (10 nM) ... 110%
N#CCNC(=O)c1ccc(-c2ccnc(Nc3ccc(N4CCOCC4)cc3)n2)cc1 [Momelotinib] (10 nM) ... 115%

Looking for the measured normalised response of CCC1(c2ccc(N)cc2)CCC(=O)NC1=O (centres undefined) [Aminoglutethimide] (1000 nM) , can you help? 95.6%

====

- Test system: HDQ-P1
- assay.notes: normalised viability (% of control), CellTiter-Blue; higher = more viable cells (about 100 = DMSO control)
- run.parameters: incubation time: 72 h
quantity: normalised viability (%)
# output: bare number, implied unit %

Recorded results for 5 compounds are shown here.
Clc1ccc(Nc2nnc(Cc3ccncc3)c3ccccc23)cc1 [Vatalanib] (1000 nM) ... 98.6
Cn1c(CCCC(=O)O)nc2cc(N(CCCl)CCCl)ccc21 [Bendamustine] (1000 nM) ... 108
CO[C@H]1/C=C\C=C(/C)C(=O)NC2=CC(=O)C(NCCN(C)C)=C(C[C@@H](C)C[C@H](OC)[C@H](O)[C@@H](C)/C=C(\C)[C@@H]1OC(N)=O)C2=O [Alvespimycin] (100 nM) ... 38
Cc1ccc(C(=O)Nc2ccc(CN3CCN(C)CC3)c(C(F)(F)F)c2)cc1C#Cc1cnc2cccnn12 [Ponatinib] (100 nM) ... 92.8
Cn1c(Nc2ccc(C(F)(F)F)cc2)nc2cc(Oc3ccnc(-c4ncc(C(F)(F)F)[nH]4)c3)ccc21 [RAF265] (100 nM) ... 74.6

Looking for the measured normalised viability of C#Cc1cccc(Nc2ncnc3cc(OCCOC)c(OCCOC)cc23)c1 [Erlotinib] (1000 nM) , can you help? 71.6

====

Measured normalised response values are reported for all entries that follow.
- Tested on: MDA-MB-453
- assay.notes: normalised response (% of control), CellTiter-Glo; higher = more viable cells (100 = DMSO, 0 = benzethonium chloride kill control)
- run.parameters: incubation time: 72 h
# output: bare number, implied unit %

Recorded results for 6 compounds are shown here.
CN(C)/N=N/c1[nH]cnc1C(N)=O [Dacarbazine] (100 nM) ... 103
CO[C@H]1/C=C\C=C(/C)C(=O)NC2=CC(=O)C(NCCN(C)C)=C(C[C@@H](C)C[C@H](OC)[C@H](O)[C@@H](C)/C=C(\C)[C@@H]1OC(N)=O)C2=O [Alvespimycin] (10 nM) ... 89.1
Cc1ccc(-n2nc(C(C)(C)C)cc2NC(=O)Nc2ccc(OCCN3CCOCC3)c3ccccc23)cc1 [Doramapimod] (100 nM) ... 99.4
O=C(O)c1ccc(-c2c[nH]c3ncc(-c4ccccc4)cc23)cc1C1CCCC1 (100 nM) ... 97.6
Cn1c(CCCC(=O)O)nc2cc(N(CCCl)CCCl)ccc21 [Bendamustine] (100 nM) ... 125
N.N.[Cl][Pt][Cl] [Cisplatin] (10 nM) ... 90.5

Next up:
Looking for the measured normalised response of O=C1CCC(N2C(=O)c3ccccc3C2=O)C(=O)N1 (configuration not stated) [Thalidomide] (100 nM) , can you help? 101

====

- System: HCC1937
- assay.notes: normalised response (% of control), CellTox Green; higher = less cell death (100 = DMSO, 0 = benzethonium chloride kill control)
- run.parameters: incubation time: 72 h
quantity: normalised response (%)
# output: bare number, implied unit %

Recorded results for 4 compounds are shown here.
COc1cc([C@@H]2c3cc4c(cc3[C@@H](O[C@@H]3O[C@@H]5CO[C@@H](C)O[C@H]5[C@H](O)[C@H]3O)[C@H]3COC(=O)[C@H]23)OCO4)cc(OC)c1O [Etoposide] (100 nM) ... 111
Cc1ccc(-n2nc(C(C)(C)C)cc2NC(=O)Nc2ccc(OCCN3CCOCC3)c3ccccc23)cc1 [Doramapimod] (1000 nM) ... 109
N.N.[Cl][Pt][Cl] [Cisplatin] (1000 nM) ... 92.5
COc1cc2nccc(Oc3ccc(NC(=O)C4(C(=O)Nc5ccc(F)cc5)CC4)cc3)c2cc1OC [Cabozantinib] (10 nM) ... 102

Next up:
Looking for the measured normalised response of CC(=O)Nc1ccc(C(=O)Nc2ccccc2N)cc1 [Tacedinaline] (100 nM) , can you help? 115

====

- System: MDA-MB-231
- assay.notes: drug sensitivity score (DSS), CellTox Green (DSS (AUC-based score)); higher = stronger drug effect (viability inhibition or cytotoxicity); extreme values may be limits of the assay
- run.parameters: incubation time: 72 h
Measured drug sensitivity score values are reported for all entries that follow.
The answer should be a number; do not append a unit.

Recorded results for 6 compounds are shown here.
Clc1ccc(Nc2nnc(Cc3ccncc3)c3ccccc23)cc1 [Vatalanib] ... 0
Cc1ccc(C(=O)N(CCCN)[C@@H](c2oc3cc(Cl)ccc3c(=O)c2Cc2ccccc2)C(C)C)cc1 ... 0
N#CCNC(=O)c1ccc(-c2ccnc(Nc3ccc(N4CCOCC4)cc3)n2)cc1 [Momelotinib] ... 7.53
O=P1(NCCCl)OCCCN1CCCl (configuration not stated) [Ifosfamide] ... 1.11
NC(=O)Nc1cc(-c2cccc(F)c2)sc1C(=O)N[C@H]1CCCNC1 [AZD7762] ... 0.946
CN(C)/N=N/c1[nH]cnc1C(N)=O [Dacarbazine] ... 0

Next up:
Looking for the measured drug sensitivity score of CNCc1ccc(-c2[nH]c3cc(F)cc4c3c2CCNC4=O)cc1 [Rucaparib] , can you help? 0
